Target or system: BK virus VP1 protein, genotype II (BK virus)
Assay details: cell-based or functional assay
Assay endpoint: EC50, pseudovirus neutralization (pM)
Answers are plain numbers, in pM.

Observe how each entry below is paired with its result.
Query: Need EC50, pseudovirus neutralization, item 7E5 (antibody, V domains shown) VH: EVQLLESGGGLIQPGGSLRLSCAASGFTFSGFAMSWVRQAPGKGLEWVSGISGSGDITYYGDSVKGRFTISRDNSKSTLYLQMNSLRDADTAVYYCGKDPYNWNHGVYGMDVWGQGTTVTVSS VL: DIQMTQSPSSLSASVGDRVTITCRASQSISTYLNWYQQKPGKAPKFLIYGASSLQSGVPSRFSGSGSGTDFSLTISSLHPGDFATYYCQQSYNIPLTFGGGTKVEIK
Reply: 1160

Query: Report EC50, pseudovirus neutralization for 5A8 (antibody, V domains shown) VH: QVQLVESGGDLVKPGGSLRLSCVASGFTFSDYYMNWIRLPPGRGLEWISYIDSSAGAIYYADSVKGRFTVSRDDAKKSLFLYMNSLRADDTAVYYCARERRDGHKIFDYWGPGTLVTVSS VL: DIVMTQSPDSLAVSLGERATINCKSSQNILYSSNNKNYLAWYQQKAGQPPKLLIFWSSTRESGVPDRFSGSGSGTDFTLTISSLQAEDVAVYYCHQYYSSPYNFGRGTTLEIK please.
Reply: 0.9

Query: Reported EC50, pseudovirus neutralization for 9H9 (antibody, V domains shown) VH: EVQLVESGGGLVQPGGSLRLSCAASGFTFSSYEMNWVRQAPGKGLEWVSYISSGGSSIKYADSVRGRFTFSRDNAENSVHLQMNSLRGEDTAVYYCARVGGSYYYSYAMDVWGQGTAVTVSS VL: DIQLTQSPSFLSASVGDRVTITCWASQDISSYLAWYQQKPGKAPKLLIYAASTLQSGVPSRFSGSGSGTEFTLTISSLQPEDFATYYCQQPNNYPFSFGPGTKVDVK : what is it?
Reply: 8.3

Query: Which EC50, pseudovirus neutralization value belongs to 6H12 (antibody, V domains shown) VH: EVQLVESGGGLVQPGGSLRLSCAASGFTFSSYEMNWVRQAPGKGLEWVSYISSGGSSIKYADSVRGRFAFSRDNAENSVHLQMNSLRAEDTAVYYCARVGGSYYYSYAMDVWGQGTAVTVSS VL: DIQLTQSPSFLSASVGDRVTITCWASQDISSYLAWYQQKPGKAPKLLIYAASTLQSGVPSRFTGSGSGTEFTLTISSLQPEDFATYYCQQPHNSPFSFGPGTKVDVK ?
Reply: 10.9

Continuing:
Query: I am curious: what EC50, pseudovirus neutralization value has been reported for 15C10 (antibody, V domains shown) VH: EVQLLESGGGLVQPGGSLRLSCAASGFTFSSFAMSWVRQAPGKGLEWVSGISASGGTTNYADSVKGRFTISRDNSKNTLYLQMSSLRAEDTAEYYCAKDRFLEWVEGFDPWGQGILVTVSP VL: DIQMTQSPSSLSASVGDRVTITCRASQSIGRFLIWYQQKPGKAPKLLLYATSSLQSGVPARFTGSGSGTDFTLTIGSLQPEDFATYYCQQSYITPLTFGGGTKVEIK ?
Reply: 13.1
